tested on: Enterococcus faecalis; assay: Minimum inhibitory concentration against Enterococcus faecalis (GC 4555) was determined; assay type: functional
EXPERIMENTAL_ENDPOINT: MIC (µg/mL)

• COc1ccc2cc(CO[C@H]3[C@H](O)[C@H](O)[C@@H](O[C@H]4[C@H](O)[C@H](O)[C@@H](Oc5ccc(C[C@H]6NC(=O)[C@H]([C@@H](C)c7ccccc7)NC(=O)CNC(=O)[C@H](CO)NC(=O)[C@@H]([C@@H](O)[C@@H]7CN=C(N)N7[C@H]7O[C@H](O)[C@@H](O)[C@H](O)[C@@H]7O)NC(=O)[C@H]([C@@H](O)[C@@H]7CN=C(N)N7)NC6=O)cc5)O[C@@H]4CO)O[C@@H]3CO)ccc2c1 = 2
• CN[C@H](CC(C)C)C(=O)N[C@H]1C(=O)N[C@@H](CC(N)=O)C(=O)N[C@H]2C(=O)N[C@H]3C(=O)N[C@H](C(=O)N[C@H](C(=O)O)c4cc(O)cc(O)c4-c4cc3ccc4O)[C@H](O)c3ccc(c(Cl)c3)Oc3cc2cc(c3O[C@@H]2O[C@H](CO)[C@@H](O)[C@H](O)[C@H]2O[C@H]2C[C@](C)(N)[C@H](O)[C@H](C)O2)Oc2ccc(cc2Cl)[C@H]1O = 2
• COc1ccc2cc(CO[C@H]3[C@H](O)[C@@H](CO)OC(O[C@H]4[C@H](O)[C@H](O)[C@@H](Oc5ccc(C[C@H]6NC(=O)[C@H]([C@@H](C)c7ccccc7)NC(=O)CNC(=O)[C@H](CO)NC(=O)[C@@H]([C@@H](O)[C@@H]7CN=C(N)N7[C@H]7O[C@H](O)[C@@H](O)[C@H](O)[C@@H]7O)NC(=O)[C@H]([C@@H](O)[C@@H]7CN=C(N)N7)NC6=O)cc5)O[C@@H]4CO)[C@H]3O)ccc2c1 (some centres undefined) = 8
• COc1ccc2cc(COC[C@H]3O[C@H](O[C@H]4[C@H](O)[C@H](O)[C@@H](Oc5ccc(C[C@H]6NC(=O)[C@H]([C@@H](C)c7ccccc7)NC(=O)CNC(=O)[C@H](CO)NC(=O)[C@@H]([C@@H](O)[C@@H]7CN=C(N)N7[C@H]7O[C@H](O)[C@@H](O)[C@H](O)[C@@H]7O)NC(=O)[C@H]([C@@H](O)[C@@H]7CN=C(N)N7)NC6=O)cc5)O[C@@H]4CO)[C@@H](O)[C@@H](O)[C@@H]3O)ccc2c1 = 8

These entries and their values trace back to ChEMBL document CHEMBL1136657.
